Please provide measured logD for the entries that follow.
Test: Octanol/PBS buffer distribution coefficient, logD of the compound at pH 7.5 by LC-MS analysis
Format: physicochemical

Some compounds with recorded logD:
- structure: "CC(C)(C)c1ncc(C(=O)Nc2nc(-c3ccc4ccccc4c3)cs2)s1"
  logD: "> 3.03"
- structure: "CSc1ncccc1C(=O)Nc1nc(-c2cccc(-c3ccccn3)c2)cs1"
  logD: "> 3.83"

# ---- query compound ----
The value of logD measured for the compound CSc1ncccc1C(=O)Nc1nc(-c2cccc(Nc3ccc(C#N)c(C(=O)O)c3)c2)cs1 turned out to be 1.4

* * *

Assay: Octanol/PBS buffer distribution coefficient, logD of the compound at pH 7.5 by LC-MS analysis
Format: physicochemical
Please provide measured logD for the entries that follow.

Some compounds with recorded logD:
- structure: "CSc1ncccc1C(=O)Nc1nc(-c2cccc(Nc3ccc(C#N)c(O)c3)c2)cs1"
  logD: "> 3.46"
- structure: "CSc1ncccc1C(=O)Nc1nc(-c2cccc(Nc3cccc(C#N)c3)c2)cs1"
  logD: "> 3.54"

# ---- query compound ----
The value of logD measured for the compound CSc1ncccc1C(=O)Nc1nc(-c2cccc(-c3ccccc3)c2)cs1 turned out to be > 4.15

* * *

Experiment: Half life of the compound in mouse liver microsomes in presence of NADPH by LC-MS/MS analysis
Type: ADME, Microsome
Hi all, reminder that labels come from half-life, split as interval 1: < 30 min; interval 2: ≥ 30 min and < 60 min; interval 3: ≥ 60 min

- structure: "CSc1ncccc1C(=O)Nc1nc(-c2cc(C(=O)O)cc(-c3ccc(C#N)cc3)c2)cs1"
  category label: "interval 3"
- structure: "CSc1ncccc1C(=O)Nc1nc(-c2cccc(Nc3cccc(C#N)c3)c2)cs1"
  category label: "interval 2"
- structure: "CC(C)(C)c1ncc(C(=O)Nc2nc(-c3ccc4ccccc4c3)cs2)s1"
  category label: "interval 1"
- structure: "CSc1ncccc1C(=O)Nc1nc(-c2cccc(-c3ccccn3)c2)cs1"
  category label: "interval 1"
- structure: "CCOC(=O)N1CCN(c2cc(-c3ccc(C#N)cc3)cc(-c3csc(NC(=O)c4cccnc4SC)n3)c2)CC1"
  category label: "interval 3"
- structure: "O=C(Nc1nc(-c2ccc3ccccc3c2)cs1)c1cc(F)c(O)c(F)c1"
  category label: "interval 2"
- structure: "Cc1ncccc1C(=O)Nc1nc(-c2ccc3ccccc3c2)cs1"
  category label: "interval 1"
- structure: "CSc1ncccc1C(=O)Nc1nc(-c2cc(-c3ccc(C#N)cc3)ccc2F)cs1"
  category label: "interval 3"
- structure: "CSc1ncccc1C(=O)Nc1nc(-c2cccc(-c3ccc(C#N)cn3)c2)cs1"
  category label: "interval 2"
- structure: "CC(C)(C)c1ccc(C(=O)Nc2nc(-c3ccc4ccccc4c3)cs2)cc1"
  category label: "interval 1"

Challenge: Category lookup for the compound CSc1ncccc1C(=O)Nc1nc(-c2cc(Nc3ccc(C#N)cc3)cc(N3CCOCC3)c2)cs1
Response given: interval 3

Challenge: Category lookup for the compound CSc1ncccc1C(=O)Nc1nc(-c2ccc3ccccc3c2)cs1
Response given: interval 1

Challenge: Category lookup for the compound COc1cc(Nc2cccc(-c3csc(NC(=O)c4cccnc4SC)n3)c2)ccc1C#N
Response given: interval 2

Challenge: Category lookup for the compound CC(C)(C(=O)O)c1ccc(C(=O)Nc2nc(-c3ccc4ccccc4c3)cs2)cc1
Response given: interval 3

Challenge: Category lookup for the compound CSc1ncccc1C(=O)Nc1nc(-c2cccc(Nc3ccc(C#N)cc3)c2)cs1
Response given: interval 3

Values were extracted from ChEMBL document CHEMBL6074675.
